System: Ryegrass, Italian (Italian ryegrass, Lolium multiflorum)
Experiment: Test A preemergence, Ryegrass, Italian
Type: in vivo
Conditions: Preemergence, 125 g ai/ha; visual injury on 0 to 100 scale (0 no effect, 100 complete control), approximately 10 days

COMPOUND	Ryegrass, Italian plant response rating
Cc1cc(Cl)c(NS(=O)(=O)C(F)(F)F)cc1C(=O)N1CCSCC1 [Compound 26]	80
CSC1CCCN(C(=O)c2cc(NS(=O)(=O)C(F)(F)F)c(C)cc2C)C1 (stereo not drawn) [Compound 3]	70
Cc1cc(Cl)c(NS(=O)(=O)C(F)(F)F)cc1C(=O)N1CCC(C#N)CC1 [Compound 17]	80
COC1CCN(C(=O)c2cc(NS(=O)(=O)C(F)(F)F)c(C)c(F)c2C)CC1 [Compound 110]	20
Cc1cc(C)c(C2=NOC3(CCC(C)(C)CC3)C2)cc1NS(=O)(=O)C(F)(F)F [Compound 163]	80
Cc1cc(C)c(C2=NOC3CCCCC23)cc1NS(=O)(=O)C(F)(F)F (racemic) [Compound 125]	100

---

Tested on: Foxtail, Giant (giant foxtail, Setaria faberi)
Experiment: Test A preemergence, Foxtail, Giant
Type: in vivo
Conditions: Preemergence, 125 g ai/ha; visual injury, 0 to 100 scale (0 no effect, 100 complete control), approx. 10 days
Plant response rating, Foxtail, Giant listing for selected compounds.
MEASURED PROPERTY: Plant response rating, Foxtail, Giant

COMPOUND	MEASURED PROPERTY	REPORTED VALUE
Cc1cc(F)c(C(=O)N2CCC(C#N)CC2)cc1NS(=O)(=O)C(F)(F)F [Compound 236]	Plant response rating, Foxtail, Giant	30
Cc1cc(C)c(N(S(=O)(=O)C(F)(F)F)S(=O)(=O)C(F)(F)F)cc1C(=O)N1CCCOCC1 [Compound 276]	Plant response rating, Foxtail, Giant	100
Cc1cc(C)c(N(S(=O)(=O)C(F)(F)F)S(=O)(=O)C(F)(F)F)cc1N1CCC2(CCCC2)C1=O [Compound 280]	Plant response rating, Foxtail, Giant	100
CC(=O)N(c1cc(C2=NOC3(CCCC3)C2)c(C)cc1C)S(=O)(=O)C(F)(F)F [Compound 220]	Plant response rating, Foxtail, Giant	100
Cc1cc(Cl)c(NS(=O)(=O)C(F)(F)F)cc1C(=O)N1CCC(F)CC1 [Compound 201]	Plant response rating, Foxtail, Giant	50
Cc1cc(Cl)c(NS(=O)(=O)C(F)(F)F)cc1C1=NOC2(CCCC2)C1 [Compound 204]	Plant response rating, Foxtail, Giant	80
Cc1cc(Cl)c(NS(=O)(=O)C(F)(F)F)cc1C1=NOC(C)(C)C1 [Compound 203]	Plant response rating, Foxtail, Giant	30
Cc1cc(C)c(N2CCC3(CCCC3)C2=O)cc1NS(=O)(=O)C(F)(F)F [Compound 270]	Plant response rating, Foxtail, Giant	100

---

Plant response rating, Ragweed listing for selected molecules.
Tested on: ragweed (common ragweed, Ambrosia artemisiifolia)
Assay: Test A1 preemergence, ragweed
Format: in vivo
Conditions: 31 g ai/ha, 0 to 100 scale (0 no effect, 100 complete control)

MOLECULE	Plant response rating, Ragweed
CCc1cc(C)c(N(COC(=O)C(C)(C)C)S(=O)(=O)C(F)(F)F)cc1C1=NOC2CCCC12 (stereo not drawn)	0
Cc1cc(C)c(N(COC(=O)C(C)(C)C)S(=O)(=O)C(F)(F)F)cc1N1CCC2(CCC(C(F)(F)F)CC2)C1=O (stereo not drawn)	0
Cc1c(C(=O)N2CCOCC2)cc(N(COC(=O)C(C)(C)C)S(=O)(=O)C(F)(F)F)c(C)c1C	20

---

System: kochia (Bassia scoparia)
Test: Test A1 postemergence, kochia
Assay type: in vivo
Details: Postemergence, 31 g ai/ha; 0 to 100 scale (0 no effect, 100 complete control); 10 days

COMPOUND	Plant response rating, Kochia
COCC1CC(c2cc(N(COC(=O)C(C)(C)C)S(=O)(=O)C(F)(F)F)c(C)cc2C)=NO1 (stereo not drawn)	10
Cc1cc(C)c(N(COC(=O)N(C)C)S(=O)(=O)C(F)(F)F)cc1C1=NOC2CCCC12 (stereo not drawn)	0
Cc1c(NS(=O)(=O)C(F)(F)F)cc(C(=O)N2CC(C)OC(C)C2)c(C)c1C (stereo not drawn)	10
Cc1cc(C2CC2)c(NS(=O)(=O)C(F)(F)F)cc1C1=NOC2(CCCC2)C1	0
CCc1cc(C)c(C2=NOC3(CCCC3)C2)cc1NS(=O)(=O)C(F)(F)F	0
Cc1cc(C)c(N(C(=O)OCC(C)C)S(=O)(=O)C(F)(F)F)cc1C1=NOC2CCCC12 (stereo not drawn)	0

---

Test system: galium (catchweed bedstraw, Galium aparine)
Test: Test A postemergence, galium
Format: in vivo
Details: Postemergence, 125 g ai/ha; visual injury approx. 10 days; 0 to 100 scale (0 no effect, 100 complete control)

MOLECULE	Plant response rating, Galium
Cc1cc(C)c(N(S(=O)(=O)C(F)(F)F)S(=O)(=O)C(F)(F)F)cc1-c1cc(Br)nn(C)c1=O	50
CCn1nccc(-c2cc(NS(=O)(=O)C(F)(F)F)c(C)cc2F)c1=O	90
Cc1cc(Cl)c(NS(=O)(=O)C(F)(F)F)cc1C(=O)N1CC(C)OC(C)C1 (stereo not drawn)	90
Cc1cc(C)c(C2=NOC3CCCCC23)cc1NS(=O)(=O)C(F)(F)F (stereo not drawn)	90
COC1CCCN(C(=O)c2cc(N(COC(C)=O)S(=O)(=O)C(F)(F)F)c(C)cc2C)C1 (stereo not drawn)	80
Cc1cc(C)c(-c2ccnn(CC(F)(F)F)c2=O)cc1NS(=O)(=O)C(F)(F)F	80
Cc1cc(C#N)c(C(=O)N(C)C)cc1NS(=O)(=O)C(F)(F)F	50
Cc1cc(C(F)(F)F)c(NS(=O)(=O)C(F)(F)F)cc1C(=O)N(C)C	70
Cc1c(NS(=O)(=O)C(F)(F)F)cc(C(=O)N2CC(C)OC(C)C2)c(C)c1F (stereo not drawn)	90

Values from patent US20230278972A1
